Some compounds, each annotated with its measured therapeutic spectrum.
System: insulated, electrically stimulated left atrium of the guinea pig
Assay: Therapeutic effect and therapeutic spectrum at the insulated, electrically stimulated left atrium of the guinea pig
Format: cell-based
Conditions: quotient EC50 decrease/EC50 increase; mean and average deviation
Write no unit; give the number alone.

CO[C@H]1[C@@H](O)C[C@H](O[C@H]2[C@@H](O)C[C@H](O[C@H]3[C@@H](O)C[C@H](O[C@H]4CC[C@@]5(C)[C@H](CC[C@@H]6[C@@H]5C[C@H](OC(C)=O)[C@]5(C)[C@@H](C7=CC(=O)OC7)CC[C@]65O)C4)O[C@@H]3C)O[C@@H]2C)O[C@@H]1C [Example 18, 12-Acetyl-12-epi-β-methyldigoxin]: 6.50
CC(=O)O[C@H]1C[C@H]2[C@@H](CC[C@@H]3C[C@@H](O[C@H]4C[C@H](O)[C@H](O[C@H]5C[C@H](O)[C@H](O[C@H]6C[C@H](O)[C@H](O)[C@@H](C)O6)[C@@H](C)O5)[C@@H](C)O4)CC[C@@]32C)[C@@]2(O)CC[C@H](C3=CC(=O)OC3)[C@@]12C [Example 7, 12-Acetyl-12-epi-digoxin]: 5.15
CC(=O)O[C@H]1[C@@H](O)C[C@H](O[C@H]2[C@@H](O)C[C@H](O[C@H]3[C@@H](O)C[C@H](O[C@H]4CC[C@@]5(C)[C@H](CC[C@@H]6[C@@H]5C[C@H](O)[C@]5(C)[C@@H](C7=CC(=O)OC7)CC[C@]65O)C4)O[C@@H]3C)O[C@@H]2C)O[C@@H]1C [Example 6, β-Acetyl-12-epi-digoxin]: 4.25

Next compound, therapeutic spectrum to be filled in.
Lab note: compound C[C@H]1O[C@@H](O[C@H]2[C@@H](O)C[C@H](O[C@H]3[C@@H](O)C[C@H](O[C@H]4CC[C@@]5(C)[C@H](CC[C@@H]6[C@@H]5C[C@H](O)[C@]5(C)[C@@H](C7=CC(=O)OC7)CC[C@]65O)C4)O[C@@H]3C)O[C@@H]2C)C[C@H](O)[C@@H]1O [Example 1, 12-Epi-digoxin] tested on insulated, electrically stimulated left atrium of the guinea pig; recorded therapeutic spectrum was 4.49
